Tested on: Hela
ASSAY COMMENT: Cytotoxicity (XTT) on Hela cells
Type: cell-based, human
CONDITIONS USED: 100 μM, 72 h

MOLECULE | ASSAY SYSTEM | Cell viability HeLa S3 100 μM / % vs. control
COc1ccc(CNC(=O)C(=O)[C@@H]2CCCN2C(=O)CNC(=O)c2ccnc3ccccc23)cc1OC | Hela | 78
O=C(NCC(=O)N1CCCC1)C(=O)[C@@H]1CCCN1C(=O)CNC(=O)c1ccnc2ccccc12 | Hela | 101
CN(C)C(=O)CNC(=O)C(=O)[C@@H]1CCCN1C(=O)CNC(=O)c1ccnc2ccccc12 | Hela | 102
COC(=O)[C@H](CCC(N)=O)NC(=O)CNC(=O)C(=O)[C@@H]1CCCN1C(=O)CNC(=O)c1ccnc2ccccc12 | Hela | 99
O=C(NCCc1ccccc1)C(=O)[C@@H]1CCCN1C(=O)CNC(=O)c1ccnc2ccccc12 | Hela | 81
CCCCCNC(=O)C(=O)[C@@H]1CCCN1C(=O)CNC(=O)c1ccnc2ccccc12 | Hela | 109
COC(=O)C(C)NC(=O)C(=O)[C@@H]1CCCN1C(=O)CNC(=O)c1ccnc2ccccc12 (mixture of isomers) | Hela | 104
COc1ccc(NC(=O)C(=O)[C@@H]2CCCN2C(=O)CNC(=O)c2ccnc3ccccc23)cc1 | Hela | 94
CC(C)NC(=O)CNC(=O)C(=O)[C@@H]1CCCN1C(=O)CNC(=O)c1ccnc2ccccc12 | Hela | 99
CC(C)(C)OC(=O)CNC(=O)C(=O)[C@@H]1CCCN1C(=O)CNC(=O)c1ccnc2ccccc12 | Hela | 100
COC(=O)c1ccc(NC(=O)C(=O)[C@@H]2CCCN2C(=O)CNC(=O)c2ccnc3ccccc23)cc1 | Hela | 89
COC(=O)CNC(=O)C(=O)[C@@H]1CCCN1C(=O)CNC(=O)c1ccnc2ccccc12 | Hela | 94
COC(=O)[C@H](CCC(=O)OCc1ccccc1)NC(=O)CNC(=O)C(=O)[C@@H]1CCCN1C(=O)CNC(=O)c1ccnc2ccccc12 | Hela | 93
COC(=O)[C@H](CCCCNC(=O)OCc1ccccc1)NC(=O)CNC(=O)C(=O)[C@@H]1CCCN1C(=O)CNC(=O)c1ccnc2ccccc12 | Hela | 98
O=C(NC1CC1)C(=O)[C@@H]1CCCN1C(=O)CNC(=O)c1ccnc2ccccc12 | Hela | 103

----------
Test system: HepG2
ASSAY COMMENT: Cytotoxicity (XTT) on HepG2 cells
Format: cell-based, human
CONDITIONS USED: 10 μM, 72 h

COMPOUND | Cell viability HepG2 10 μM
COC(=O)c1ccc(NC(=O)C(=O)[C@@H]2CCCN2C(=O)CNC(=O)c2ccnc3ccccc23)cc1 [Compound 3g] | 93 % vs. control
COC(=O)C(C)NC(=O)C(=O)[C@@H]1CCCN1C(=O)CNC(=O)c1ccnc2ccccc12 (mixture of isomers) [Compound 3m] | 91 % vs. control
CCCCCNC(=O)C(=O)[C@@H]1CCCN1C(=O)CNC(=O)c1ccnc2ccccc12 [Compound 3j] | 76 % vs. control
CC(C)(C)OC(=O)CNC(=O)C(=O)[C@@H]1CCCN1C(=O)CNC(=O)c1ccnc2ccccc12 [Compound 3l] | 97 % vs. control
O=C(CNC(=O)C(=O)[C@@H]1CCCN1C(=O)CNC(=O)c1ccnc2ccccc12)NCc1ccccc1 [Compound 5d] | 82 % vs. control
COc1ccc(CNC(=O)C(=O)[C@@H]2CCCN2C(=O)CNC(=O)c2ccnc3ccccc23)cc1OC [Compound 3b] | 97 % vs. control
COC(=O)[C@H](CCCCNC(=O)OCc1ccccc1)NC(=O)CNC(=O)C(=O)[C@@H]1CCCN1C(=O)CNC(=O)c1ccnc2ccccc12 [Compound 5i] | 89 % vs. control
COC(=O)[C@H](CCC(N)=O)NC(=O)CNC(=O)C(=O)[C@@H]1CCCN1C(=O)CNC(=O)c1ccnc2ccccc12 [Compound 5g] | 102 % vs. control
COC(=O)[C@H](Cc1ccccc1)NC(=O)CNC(=O)C(=O)[C@@H]1CCCN1C(=O)CNC(=O)c1ccnc2ccccc12 [Compound 5f] | 78 % vs. control
COC(=O)[C@H](CCC(=O)OCc1ccccc1)NC(=O)CNC(=O)C(=O)[C@@H]1CCCN1C(=O)CNC(=O)c1ccnc2ccccc12 [Compound 5h] | 112 % vs. control
COc1ccc(CCNC(=O)C(=O)[C@@H]2CCCN2C(=O)CNC(=O)c2ccnc3ccccc23)cc1OC [Compound 3e] | 92 % vs. control
CN(C)C(=O)CNC(=O)C(=O)[C@@H]1CCCN1C(=O)CNC(=O)c1ccnc2ccccc12 [Compound 5a] | 91 % vs. control
CC(C)NC(=O)C(=O)[C@@H]1CCCN1C(=O)CNC(=O)c1ccnc2ccccc12 [Compound 3i] | 87 % vs. control
O=C(NCC(=O)N1CCCC1)C(=O)[C@@H]1CCCN1C(=O)CNC(=O)c1ccnc2ccccc12 [Compound 5b] | 83 % vs. control
